Measured kon, listed per entry.
- assaySystem: T1, human ROR1-His protein (fused with a His protein tag, Acrobiosystems, RO1-H522y) (human, UniProt Q01973 30-403)
- T1 construct: also called recombinant human ROR1-His protein; not shown: His tag
- T1 sequence (Q01973 30-403 limits assumed): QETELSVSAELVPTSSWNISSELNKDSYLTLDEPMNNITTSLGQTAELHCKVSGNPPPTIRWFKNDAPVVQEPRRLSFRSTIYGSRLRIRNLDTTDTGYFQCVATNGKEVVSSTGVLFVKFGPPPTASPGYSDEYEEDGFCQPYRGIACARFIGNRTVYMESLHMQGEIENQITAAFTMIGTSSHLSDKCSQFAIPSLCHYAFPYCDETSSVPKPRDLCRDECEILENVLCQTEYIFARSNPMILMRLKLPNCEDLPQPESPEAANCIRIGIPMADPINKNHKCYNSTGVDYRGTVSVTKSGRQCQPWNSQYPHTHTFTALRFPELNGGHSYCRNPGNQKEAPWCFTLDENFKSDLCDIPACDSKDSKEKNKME
- experimentDescription: SPR Biacore T200, method as Example 6 (antibody Fc-captured, antigen as analyte)
- Description: The affinity of purified antibodies for human ROR1-related proteins was determined separately using the surface plasmon resonance (SPR) biosensor Biacore T200 (GE Healthcare). The antibodies were immobilized on the sensor chip by the Fc capture method. Human ROR1-related proteins were used as analytes. […] The equilibrium dissociation constant (KD) was calculated from the ratio of kd to ka. […]
measuredParameter: kon

* single domain antibody AHP15485-VHH4-Variant1 (Fc fusion, Fc format is inferred; not shown: human IgG1 Fc; vector and li) EVQLVESGGGLVQPGGSLRLSCAASGRSFSNFQMGWFRQAPGKEREFVAASGWSGGPTYYWDSVIGRFTISTDNSKNTLYLQMNSLRAEDTAVYYCYEDRVLSGRPVRYWGQGTLVTVSS | 83100 M⁻¹ s⁻¹
* humanized single domain antibody AHP15485-VHH4 (Fc fusion, Humanized VHH expressed from pcDNA3.4-Fc (Human IgG1); not shown: human IgG1 Fc of the pcDNA3.4-Fc (Human IgG1) expression vector) EVQLVESGGGLVQPGGSLRLSCAASGRSFSNFQMGWFRQAPGKEREFVAASGWSGGPTYYADSVKGRFTISTDNSKNTLYLQMNSLRAEDTAVYYCYEDRVLSGRPVRYWGQGTLVTVSS | 189000 M⁻¹ s⁻¹
* single domain antibody AHF22013 (Fc fusion, Fc format is inferred; not shown: human IgG1 Fc; vector and li) EVQLVESGGGLVQPGGSLRLSCAASGRSFSSFQMGWFRQAPGKEREFVAASGWSGGPTYYWDSVIGRFTISTDNSKNTLYLQMNSLRAEDTAVYYCYEDRVLSGRHVRYWGQGTLVTVSS | 42000 M⁻¹ s⁻¹
* single domain antibody AHF22018 (Fc fusion, not shown: human IgG1 Fc; vector and li) EVQLVESGGGLVQPGGSLRLSCAASGRSFSSFQMGWFRQAPGKEREFVAASGWSGGPTYYWDSWKGRFTISTDNSKNTLYLQMNSLRAEDTAVYYCYEDRVLSGRWVRYWGQGTLVTVSS | 43500 M⁻¹ s⁻¹
* single domain antibody AHP15485-VHH4-Variant2 (Fc fusion, Fc format is inferred; not shown: human IgG1 Fc; vector and li) EVQLVESGGGLVQPGGSLRLSCAASGRSFSSFQMGWFRQAPGKEREFVAASGWSGGPTYYWDSVIGRFTISTDNSKNTLYLQMNSLRAEDTAVYYCYEDRVLSGRPVRYWGQGTLVTVSS | 84000 M⁻¹ s⁻¹
